This collection of values is drawn from paper PMC8667043.

- System: KDM3B (Homo sapiens, UniProt Q7LBC6)
- Sequence (Q7LBC6 882-1761): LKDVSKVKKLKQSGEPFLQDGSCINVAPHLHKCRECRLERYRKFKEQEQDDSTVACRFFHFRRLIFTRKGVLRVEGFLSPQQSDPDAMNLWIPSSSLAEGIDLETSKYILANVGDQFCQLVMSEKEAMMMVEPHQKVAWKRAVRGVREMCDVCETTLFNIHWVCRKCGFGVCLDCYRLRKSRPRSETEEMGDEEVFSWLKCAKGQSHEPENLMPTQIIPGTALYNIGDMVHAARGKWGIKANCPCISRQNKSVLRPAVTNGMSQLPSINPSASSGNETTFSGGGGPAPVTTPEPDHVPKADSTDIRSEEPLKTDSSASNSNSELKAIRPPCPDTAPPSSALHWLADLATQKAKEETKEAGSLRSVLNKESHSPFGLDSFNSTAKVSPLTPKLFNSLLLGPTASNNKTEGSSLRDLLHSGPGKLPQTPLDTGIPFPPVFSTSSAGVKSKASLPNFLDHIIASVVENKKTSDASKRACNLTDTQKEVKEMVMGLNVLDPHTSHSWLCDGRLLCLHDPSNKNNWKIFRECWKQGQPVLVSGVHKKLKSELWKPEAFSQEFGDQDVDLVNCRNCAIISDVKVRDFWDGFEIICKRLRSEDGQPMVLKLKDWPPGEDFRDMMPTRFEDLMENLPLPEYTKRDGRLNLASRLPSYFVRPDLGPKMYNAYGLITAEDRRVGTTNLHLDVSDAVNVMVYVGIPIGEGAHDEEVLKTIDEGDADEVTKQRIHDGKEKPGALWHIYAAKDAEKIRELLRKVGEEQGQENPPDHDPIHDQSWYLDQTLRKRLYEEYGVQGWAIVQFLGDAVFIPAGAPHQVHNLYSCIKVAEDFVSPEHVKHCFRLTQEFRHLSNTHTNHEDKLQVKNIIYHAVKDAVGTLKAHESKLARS
Measured property: IC50 (µM)

| Compound | IC50 [µM] |
| --- | --- |
| O=C(O)c1cnc(SCCc2ccccc2)[nH]c1=O [compound 9] | 54.2 |
| O=C(CSc1ncc(C(=O)O)c(=O)[nH]1)c1ccccc1 [compound 8] | 56.2 |
| O=C(O)c1c[nH]c(=S)[nH]c1=O [compound 1] | 53.2 |
| O=C(O)c1cnc(SCCCCc2ccccc2)[nH]c1=O [compound 11] | 65.9 |
